# Assay details: Dissociation constant of compound.
# Assay type: physicochemical
Measure name: pKa

* CCCCCCCCCCOP(=O)(O)c1cc(OCc2ccccc2)ccc1/C=C/C(=O)O | 7.1
* CCCCCCCOc1ccc(C(=O)O)cc1CC(=O)C(F)(F)F | 7.1
